target_or_test_system: T1, mouse PTPRG ECD (amino acid residues 20-733 of mouse PTPRG) fused to hFc (mouse, UniProt Q05909 20-733)
T1 construct: Produced in-house; also called mPTPRG-ECD; Mouse PTPRG-ECD-hFc; not shown: human Fc (hFc)
T1 sequence: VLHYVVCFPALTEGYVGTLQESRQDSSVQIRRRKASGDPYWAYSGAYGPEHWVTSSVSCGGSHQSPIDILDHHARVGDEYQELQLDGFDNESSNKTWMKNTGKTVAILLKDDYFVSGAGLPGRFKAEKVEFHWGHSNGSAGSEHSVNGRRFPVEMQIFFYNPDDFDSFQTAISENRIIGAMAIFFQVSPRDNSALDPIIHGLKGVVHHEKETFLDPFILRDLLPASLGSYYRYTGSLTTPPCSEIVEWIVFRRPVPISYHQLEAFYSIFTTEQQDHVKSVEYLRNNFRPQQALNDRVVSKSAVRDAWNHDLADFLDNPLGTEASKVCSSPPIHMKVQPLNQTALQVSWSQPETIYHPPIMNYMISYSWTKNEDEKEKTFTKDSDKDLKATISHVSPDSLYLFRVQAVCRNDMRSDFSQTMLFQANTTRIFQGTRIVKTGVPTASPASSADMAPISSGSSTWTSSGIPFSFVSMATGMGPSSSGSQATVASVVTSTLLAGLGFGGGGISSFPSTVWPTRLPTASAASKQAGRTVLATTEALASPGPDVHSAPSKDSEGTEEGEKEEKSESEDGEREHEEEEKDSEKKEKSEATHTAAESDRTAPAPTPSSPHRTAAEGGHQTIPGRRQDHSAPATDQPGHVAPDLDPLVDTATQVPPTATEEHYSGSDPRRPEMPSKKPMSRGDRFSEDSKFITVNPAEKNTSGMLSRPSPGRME
method_notes: ELISA, one condition per Fab and antigen; y axis 0 to 1.8 without name or unit
property: binding result

binder	property	result
Fab_130 (Fab, V domains shown, Chimeric rabbit/human Fab; also called P130; clone 130) VH: QEQQKESGGGLFKPTDTLTLTCTVSGFSLSSNAISWVRQAPGNGLEWIGAIDNSGSAYYATWAKGRSTITRATNLNTVTLKMTSVTAADTATYFCAREDVRADSIDLNMWGPGTLVTISS VL: SFVLTQPASVQVNLGQTVSLTCTADTLSRSYASWYQQKPGQAPVLLIYRDTSRPSGVPDRFSGSSSGNTATLTISGAQAGDEADYYCATSDGSGSSYQFVFGGGTQLTVTG	binding result	binds
Fab_2653 (Fab, V domains shown, Chimeric rabbit/human Fab; also called P2653; clone 2653) VH: QEQLEESGGRLVTPGTPLTLTCTASGFSLSTYAMTWVRQAPGKGLEWIGIIDRYGYTYYANWARGRFTISKTSTTVDLKITSPTTEDTATYFCARDLPGYNVGTYFNMWGPGTLVTISS VL: SFVLTQPASVQVNLGQTVSLTCTADTLSRRYASWYQQKPGQAPVLFIYRDTSRPSGVPDRFSGSSSGSTATLTISGAQAGDEADYYCATSDGSGSSYQFVFGGGTQLTVTG	binding result	binds
Fab_28 (Fab, V domains shown, Chimeric rabbit/human Fab; also called P28; clone 28) VH: AQSVEESGGRLVTPGIPLTLTCTVSGFSLNNYAMSWVRQAPGKGLEWIGMIDSGGAAYYATWARGRFTISRTSTTVDLKITSPTTEDTATYFCARELSSLYGAFDPWGPGTLVTVSS VL: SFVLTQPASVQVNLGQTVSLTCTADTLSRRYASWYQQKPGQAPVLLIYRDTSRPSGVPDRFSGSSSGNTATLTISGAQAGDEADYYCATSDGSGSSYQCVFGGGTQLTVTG	binding result	binds
